Target under test: Nrf2-Keap1 complex (Homo sapiens)
Method description: cell-based
Format: cell-based
Details: 3 h, read-out: Activation 100 nL
Where a name gives a salt, the structure may show the parent alone.
Readout kind: activation at 16 µM (%)
Only the number, expressed in %, is required.

Q: // Input: COc1cc(O)cc(OC)c1OC [ANTIAROL] . Output its activation at 16 µM only.
Ans: 74

Q: Identify activation at 16 µM associated with the molecule C=C1C2=CC(=O)O[C@@H](c3ccoc3)[C@]2(C)CC[C@@H]1[C@@]1(C)C=CC(=O)C(C)(C)[C@@H]1CC(=O)OC
Ans: 95

Q: Identify measured activation at 16 µM associated with O=S(=O)(O)CCS [MESNA, reference compound]
Ans: 28

Q: Provide activation at 16 µM value for the following molecule: O=c1c(-c2ccccc2)coc2cc(O)cc(O)c12 [5,7-DIHYDROXYISOFLAVONE]
Ans: 45

Q: Read the entry COc1ccnc(C[S+]([O-])c2nc3cc(OC(F)F)ccc3[nH]2)c1OC (stereo not shown) [PANTOPRAZOLE, reference compound] and write its reported activation at 16 µM.
Ans: 25

Q: Could you please provide reported activation at 16 µM for Cc1coc2c1C(=O)C(=O)c1c-2ccc2c1CCCC2(C)C ? Thanks!
Ans: 354

Q: Annotate the molecule COc1cc(O)c2c(=O)c(O)c(-c3ccc(O)c(O)c3)oc2c1 with its measured activation at 16 µM.
Ans: 138

Q: Identify the reported activation at 16 µM for the following entry. C#C[C@]1(O)CC[C@H]2[C@@H]3CCC4=C(CCC(=O)C4)[C@H]3CC[C@@]21C [NORETHYNODREL, reference compound]
Ans: 128

Q: Let me know recorded activation at 16 µM for CC1=C2C(=CO[C@H](C)[C@H]2C)C(O)=C(C(=O)O)C1=O , thanks.
Ans: 219

Q: Give reported activation at 16 µM value for O=C(CC(=O)c1ccccc1)c1ccccc1
Ans: 66

Q: Check the records and state activation at 16 µM for COc1c(C)c2c(c(O)c1C/C=C(\C)CCC(=O)O)C(=O)OC2 [MYCOPHENOLICACID, reference compound]
Ans: 26

Q: Give reported activation at 16 µM value for O=C1OCCN1/N=C/c1ccc([N+](=O)[O-])o1 [FURAZOLIDONE, reference compound]
Ans: 43

Q: Give the reported activation at 16 µM for this molecule. CCc1cccc(CC)c1N(COC)C(=O)CCl
Ans: 261

Q: Supply recorded activation at 16 µM for COc1cc(O)c(C(=O)/C=C/c2ccc(O)c(OC)c2)c(OC)c1 here.
Ans: 655

Q: Complete the entry with activation at 16 µM for COc1cccc(O)c1O
Ans: 28

Q: Note down activation at 16 µM recorded for COc1ccc2c(c1)OCc1c-2oc2cc(OC)ccc12 [DEHYDROVARIABILIN]
Ans: 86

Q: Output activation at 16 µM of CC(C)CCCC1(C)C=Cc2c(O)c3c(c(CCC(C)C)c2O1)OC12C(CC4CC1C(C)(C)OC2(CCC(C)C(=O)O)C4O)C3=O (stereo not shown) [DECAHYDROGAMBOGICACID]
Ans: 54

Q: Return activation at 16 µM for the following molecule: CNC(=O)Oc1cccc2c1OC(C)(C)O2
Ans: 87

Q: Answer with reported activation at 16 µM of COC(=O)c1c(C)cc(O)cc1O [METHYLORSELLINATE]
Ans: 31

Q: Find the measured activation at 16 µM of C=C(C)[C@@H]1CC=C(CO)CC1 and report it.
Ans: 31

Q: Name the recorded activation at 16 µM of the molecule listed here: COc1ccc2cc1Oc1ccc(cc1)C[C@H]1c3cc(c(OC)cc3CCN1C)Oc1c(OC)c(OC)cc3c1[C@H](C2)N(C)CC3
Ans: 85

Q: Consider the molecule CC(C)c1cc2c(c(O)c1O)[C@@]1(C(=O)O)CCCC(C)(C)[C@@H]1CC2 and give its recorded activation at 16 µM.
Ans: 372

Q: Determine its reported activation at 16 µM: O=C(/C=C/c1ccccc1)c1ccc(O)cc1O [2′,4′-DIHYDROXYCHALCONE]
Ans: 227

Q: Please look at this molecule and report its activation at 16 µM: O=C(/C=C/C(=O)Oc1ccccc1C(=O)O)Oc1ccccc1C(=O)O [BISSALICYLFUMARATE]
Ans: 338

Q: For the molecule COc1ccc(-c2oc3ccccc3c(=O)c2O)cc1OC [3-HYDROXY-3′,4′-DIMETHOXYFLAVONE] , give its measured activation at 16 µM value.
Ans: 85

Q: Identify measured activation at 16 µM associated with NCCc1cc(O)c(O)cc1O [OXIDOPAMINEHYDROCHLORIDE]
Ans: 107

Q: Could you please provide reported activation at 16 µM for CC(=O)NCCc1c[nH]c2ccc(O)cc12 ? Thanks!
Ans: 61

Q: Specify reported activation at 16 µM for the molecule shown: CC(C)c1ccc2c(c1)CC[C@H]1[C@](C)(C(N)=O)CCC[C@]21C [DEHYDROABIETAMIDE]
Ans: 66

Q: Please look at this molecule and report its activation at 16 µM: COc1cc(O)c(C(=O)/C=C/c2ccc(OC)c(O)c2)c(OC)c1
Ans: 296

Q: Hello, please tell me recorded activation at 16 µM for this one: C=C(C)[C@@H]1CC[C@]2(C(=O)O)CC[C@]3(C)[C@H](CC[C@@H]4[C@@]5(C)CC[C@H](O)C(C)(C)[C@@H]5CC[C@]43C)[C@@H]12
Ans: 54

Q: State its activation at 16 µM: COc1cc2c(c(OC)c1OC)-c1ccc(OC)c(=O)cc1[C@@H](NC(C)=O)CC2 [COLCHICINE, reference compound]
Ans: 49

Q: # return recorded activation at 16 µM for entry COc1ccc(-c2oc3cc(O[C@@H]4O[C@H](CO)[C@@H](O)[C@H](O)[C@H]4O)c(OC)c(O)c3c(=O)c2OC)cc1O
Ans: 41

Q: Check the records and state activation at 16 µM for O=C(CCBr)N1CCN(C(=O)CCBr)CC1 [PIPOBROMAN, reference compound]
Ans: 79

Q: Tell me its activation at 16 µM given CC(C)C1=CC2=CC[C@@H]3[C@](C)(CCC[C@@]3(C)C(=O)O)[C@H]2CC1 as the entry.
Ans: 67

---

Target under test: Nrf2-Keap1 complex (Homo sapiens, UniProt Q14145)
Sequence (Q14145 whole entry, one chain of several): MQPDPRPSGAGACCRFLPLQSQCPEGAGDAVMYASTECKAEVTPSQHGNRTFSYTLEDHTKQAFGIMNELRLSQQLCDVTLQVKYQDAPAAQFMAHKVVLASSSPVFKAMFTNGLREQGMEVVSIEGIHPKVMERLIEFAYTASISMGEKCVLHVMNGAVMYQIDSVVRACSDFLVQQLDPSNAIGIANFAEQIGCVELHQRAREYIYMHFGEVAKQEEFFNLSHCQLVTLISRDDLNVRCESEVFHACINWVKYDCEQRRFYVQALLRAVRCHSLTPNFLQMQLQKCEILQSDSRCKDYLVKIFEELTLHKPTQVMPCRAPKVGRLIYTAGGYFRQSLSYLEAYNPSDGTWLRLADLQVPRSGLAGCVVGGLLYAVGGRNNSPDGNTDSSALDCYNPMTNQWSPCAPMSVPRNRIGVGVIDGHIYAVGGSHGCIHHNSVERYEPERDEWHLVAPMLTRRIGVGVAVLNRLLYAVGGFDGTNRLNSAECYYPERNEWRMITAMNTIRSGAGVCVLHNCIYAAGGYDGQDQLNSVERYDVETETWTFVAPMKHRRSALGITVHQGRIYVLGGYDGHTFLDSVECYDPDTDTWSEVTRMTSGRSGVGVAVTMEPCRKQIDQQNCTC
Method description: cell-based
Type: cell-based
Details: 3 h, read-out: Activation 200 nL
Structures can show the parent of a compound that is named as a salt.
Exercise: state measured activation at 32 µM for each of the molecules provided.
Supply the numeric figure in %, leaving out any unit text.

Q: Given CC(=O)Nc1ccc(O)cc1 [ACETAMINOPHEN, reference compound] , report its activation at 32 µM on Nrf2-Keap1 complex (Homo sapiens, UniProt Q14145).
Ans: 32

Q: Fill: activation at 32 µM (Nrf2-Keap1 complex (Homo sapiens, UniProt Q14145)) for this molecule CO/N=C(\C(=O)N[C@@H]1C(=O)N2C(C(=O)O)=C(COC(C)=O)CS[C@H]12)c1csc(N)n1 [CEFOTAXIMESODIUM, reference compound]
Ans: 7

Q: Supply activation at 32 µM measured with Nrf2-Keap1 complex (Homo sapiens, UniProt Q14145) for COc1cc(/C=C/C(=O)CC(=O)/C=C/c2ccc(O)c(OC)c2)ccc1O .
Ans: -4

Q: Please look at COc1cc(O)c(C(=O)/C=C/c2ccccc2)c(OC)c1 and tell me its recorded activation at 32 µM on Nrf2-Keap1 complex (Homo sapiens, UniProt Q14145).
Ans: -21

Q: // fetch activation at 32 µM; item: C=C(C)[C@@H]1CC=C(CO)CC1 ; system: Nrf2-Keap1 complex (Homo sapiens, UniProt Q14145)
Ans: 27

Q: Find the measured activation at 32 µM of C=C1C2=CC(=O)O[C@@H](c3ccoc3)[C@]2(C)CC[C@@H]1[C@@]1(C)C=CC(=O)C(C)(C)[C@@H]1CC(=O)OC with Nrf2-Keap1 complex (Homo sapiens, UniProt Q14145) as test system.
Ans: 106

Q: Recall the reported activation at 32 µM of CC(C)c1ccc2c(c1)CC[C@H]1[C@](C)(C(N)=O)CCC[C@]21C [DEHYDROABIETAMIDE] when tested on Nrf2-Keap1 complex (Homo sapiens, UniProt Q14145).
Ans: 135

Q: Recall the reported activation at 32 µM of NCCc1cc(O)c(O)cc1O [OXIDOPAMINEHYDROCHLORIDE] when tested on Nrf2-Keap1 complex (Homo sapiens, UniProt Q14145).
Ans: 124

---

Target under test: Nrf2-Keap1 complex (Homo sapiens)
Method description: cell-based
Format: cell-based
Exercise: for every item that follows, state its recorded Activation 100 nL.
Give your result in % as a bare value.

Q: Please give measured Activation 100 nL of the following entry: METHYL7-DESHYDROXYPYROGALLIN-4-CARBOXYLATE
Ans: 466

Q: Quickly give me recorded Activation 100 nL for AMSACRINEHYDROCHLORIDE [reference compound]
Ans: 345

Q: State its Activation 100 nL for this substance: 1(2)alpha-EPDXYDEOXYDIHYDROGEDUNIN
Ans: 29

Q: In one line, give reported Activation 100 nL of the entry AVOCADYNOFURAN .
Ans: 25
